- Test system: Human Cytomegalovirus (HCMV)
- Assay: microbe, parasite or virus in culture
- Assay type: cell-based
- Study conditions: Human betaherpesvirus 5, AD169, HEL, read-out: EC50 HCMV AD-169 strain (HEL cells)
Doc: threshold 100 ng/mL (exclusive). Items with EC50 beneath it return True; others return False.

CCCCCCCCCCCCCCCCCCOP1(=O)CO[C@@H](Cn2cnc(N)nc2=O)CO1 (stereo partly shown) [Compound 15] = True
Nc1ncn(C[C@@H](CO)OCP(=O)(O)O)c(=O)n1 [Compound 3] = True
Nc1cnn(C[C@@H](CO)OCP(=O)(O)O)c(=O)n1 [HPMP-6-azaC analogue] = False
Nc1ccn(C[C@@H](CO)OCP(=O)(O)O)c(=O)n1 [HPMPC, reference compound] = False
Nc1ncn(C[C@H]2COP(=O)(O)CO2)c(=O)n1 [Compound 11] = True
CCCCCCCCCCCCCCCCOCCOP1(=O)CO[C@@H](Cn2cnc(N)nc2=O)CO1 (stereo partly shown) [Compound 12] = True
